Where do the numbers come from? From paper PMC5933782.

Target of assay: UniProt Q92630
Sequence (Q92630 1-601): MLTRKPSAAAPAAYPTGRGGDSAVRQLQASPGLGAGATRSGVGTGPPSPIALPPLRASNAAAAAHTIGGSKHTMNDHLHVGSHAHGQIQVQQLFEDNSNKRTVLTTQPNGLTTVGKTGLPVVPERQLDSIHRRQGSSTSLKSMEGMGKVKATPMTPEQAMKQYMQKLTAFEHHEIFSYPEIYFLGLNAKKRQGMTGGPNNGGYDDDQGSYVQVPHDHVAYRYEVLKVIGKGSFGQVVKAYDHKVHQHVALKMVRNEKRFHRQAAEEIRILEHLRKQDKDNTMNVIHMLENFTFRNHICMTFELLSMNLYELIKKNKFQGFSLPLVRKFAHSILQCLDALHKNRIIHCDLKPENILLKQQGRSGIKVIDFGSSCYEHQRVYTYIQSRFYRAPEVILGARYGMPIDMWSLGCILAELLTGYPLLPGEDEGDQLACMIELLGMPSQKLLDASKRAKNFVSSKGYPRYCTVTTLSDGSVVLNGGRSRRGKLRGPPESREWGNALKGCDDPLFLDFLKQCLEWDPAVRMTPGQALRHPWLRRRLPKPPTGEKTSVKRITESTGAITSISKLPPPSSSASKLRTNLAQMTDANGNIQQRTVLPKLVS
pIC50: −log10 of the molar value.
Measurement name: pIC50

Requested field: pIC50. Item: O=C1NCc2ccc3c(-c4cccc(Cl)c4)c[nH]c3c21 < 5.00

Requested field: pIC50. Item: Cn1cc(-c2ccccc2)c2ccc3c(c21)C(=O)NC3 [15a] < 5.00

Requested field: pIC50. Item: O=C1NCc2ccc3c(-c4ccc(Cl)c(Cl)c4)c[nH]c3c21 < 5.00
